These data points were gathered from patent US20100285959A1.

Tested on: barley (HORVX)
Test: Test 30 growth chamber, postemergence
Type: in vivo, Hordeum vulgare
Conditions: 17 DAA, Glycerol 7100 g a.i./ha
OBSERVABLE: HORVX Obs (%)
Reply numerically in %, unit not repeated.

Query string: Tell me HORVX Obs of OCC(O)CO [Glycerol] when tested on barley (HORVX).
Result string: 0

###

System: flint corn (ZEAMI)
Test: Test 12 field trial, preemergence
Assay type: in vivo, Zea mays L. ssp. indurata
Conditions: 15 DAA; Cpd 2 or Cpd 1 62 g a.i./ha, Diuron 2000 g a.i./ha
OBSERVABLE: ZEAMI Obs (%)
Reply numerically in %, unit not repeated.

Query string: Tell me ZEAMI Obs of Nc1nc(C2CC2)nc(C(=O)O)c1Cl [Compound 1] when tested on flint corn (ZEAMI).
Result string: 0

Query string: Tell me ZEAMI Obs of COC(=O)c1nc(C2CC2)nc(N)c1Cl [Compound 2] when tested on flint corn (ZEAMI).
Result string: 15

Query string: Tell me ZEAMI Obs of CN(C)C(=O)Nc1ccc(Cl)c(Cl)c1 [Diuron] when tested on flint corn (ZEAMI).
Result string: 20
